methodSummary: Cmax in rat at 10 mg/kg, iv
Assay type: ADME, organism-based
Set-up: dose 10 mg/kg, route intravenous
testConditions: in vivo
readoutName: Cmax (ng/mL)
Answers are plain numbers, in ng/mL.

Field Cmax (entry O=C1NC(=O)/C(=C/c2ccc(-c3ccc(F)cc3O)o2)S1 ) reads 11400

---

Answer each item with its documented pIC50.
testSystem: Phosphatidylinositol 4,5-bisphosphate 3-kinase catalytic subunit delta isoform (Homo sapiens)
Sequence (O00329 whole entry, canonical isoform): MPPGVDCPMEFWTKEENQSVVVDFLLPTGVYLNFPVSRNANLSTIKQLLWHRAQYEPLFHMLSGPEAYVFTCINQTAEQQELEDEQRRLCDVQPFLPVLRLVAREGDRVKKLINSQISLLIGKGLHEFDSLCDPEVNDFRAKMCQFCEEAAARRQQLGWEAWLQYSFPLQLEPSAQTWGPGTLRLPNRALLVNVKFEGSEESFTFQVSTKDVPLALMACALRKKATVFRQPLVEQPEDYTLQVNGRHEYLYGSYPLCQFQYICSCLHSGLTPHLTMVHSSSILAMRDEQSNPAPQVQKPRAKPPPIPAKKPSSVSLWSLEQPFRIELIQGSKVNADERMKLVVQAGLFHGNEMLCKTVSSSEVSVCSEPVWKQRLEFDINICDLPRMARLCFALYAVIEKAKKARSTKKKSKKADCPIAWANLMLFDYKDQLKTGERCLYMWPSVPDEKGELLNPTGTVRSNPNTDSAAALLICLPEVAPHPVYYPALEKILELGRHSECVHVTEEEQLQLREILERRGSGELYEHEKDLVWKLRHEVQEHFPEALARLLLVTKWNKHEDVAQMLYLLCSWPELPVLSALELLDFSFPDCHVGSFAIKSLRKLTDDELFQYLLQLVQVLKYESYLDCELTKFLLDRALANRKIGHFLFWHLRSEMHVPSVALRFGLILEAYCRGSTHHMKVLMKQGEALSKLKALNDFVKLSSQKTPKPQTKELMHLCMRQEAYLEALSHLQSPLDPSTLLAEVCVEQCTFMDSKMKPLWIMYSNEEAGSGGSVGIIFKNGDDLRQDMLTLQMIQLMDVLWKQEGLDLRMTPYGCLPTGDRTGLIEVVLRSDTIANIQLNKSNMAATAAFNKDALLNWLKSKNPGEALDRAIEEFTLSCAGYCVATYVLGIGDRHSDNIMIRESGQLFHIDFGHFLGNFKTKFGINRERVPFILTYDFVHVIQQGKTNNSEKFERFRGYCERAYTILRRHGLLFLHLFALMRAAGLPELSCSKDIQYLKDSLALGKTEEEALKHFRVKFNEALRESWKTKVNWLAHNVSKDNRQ
methodSummary: Inhibition of human PI3Kdelta
Numbers only, as −log10 of the molar value.

{"columns": ["compound", "reported"],
 "data": [
  ["O=c1cc(N2CCOCC2)oc2c(-c3ccccc3)cccc12 [LY-294002]", 5.88]
]}

Okay, next one:
In plain terms, O=C1NC(=O)/C(=C/c2ccc(-c3ccc(F)cc3O)o2)S1 has a documented pIC50 of 4.70

---

testSystem: Phosphatidylinositol 4,5-bisphosphate 3-kinase catalytic subunit gamma isoform (Homo sapiens, UniProt P48736)
methodSummary: Inhibition of human PI3Kgamma at 1 uM
Sequence (P48736 whole entry, looked up, canonical isoform): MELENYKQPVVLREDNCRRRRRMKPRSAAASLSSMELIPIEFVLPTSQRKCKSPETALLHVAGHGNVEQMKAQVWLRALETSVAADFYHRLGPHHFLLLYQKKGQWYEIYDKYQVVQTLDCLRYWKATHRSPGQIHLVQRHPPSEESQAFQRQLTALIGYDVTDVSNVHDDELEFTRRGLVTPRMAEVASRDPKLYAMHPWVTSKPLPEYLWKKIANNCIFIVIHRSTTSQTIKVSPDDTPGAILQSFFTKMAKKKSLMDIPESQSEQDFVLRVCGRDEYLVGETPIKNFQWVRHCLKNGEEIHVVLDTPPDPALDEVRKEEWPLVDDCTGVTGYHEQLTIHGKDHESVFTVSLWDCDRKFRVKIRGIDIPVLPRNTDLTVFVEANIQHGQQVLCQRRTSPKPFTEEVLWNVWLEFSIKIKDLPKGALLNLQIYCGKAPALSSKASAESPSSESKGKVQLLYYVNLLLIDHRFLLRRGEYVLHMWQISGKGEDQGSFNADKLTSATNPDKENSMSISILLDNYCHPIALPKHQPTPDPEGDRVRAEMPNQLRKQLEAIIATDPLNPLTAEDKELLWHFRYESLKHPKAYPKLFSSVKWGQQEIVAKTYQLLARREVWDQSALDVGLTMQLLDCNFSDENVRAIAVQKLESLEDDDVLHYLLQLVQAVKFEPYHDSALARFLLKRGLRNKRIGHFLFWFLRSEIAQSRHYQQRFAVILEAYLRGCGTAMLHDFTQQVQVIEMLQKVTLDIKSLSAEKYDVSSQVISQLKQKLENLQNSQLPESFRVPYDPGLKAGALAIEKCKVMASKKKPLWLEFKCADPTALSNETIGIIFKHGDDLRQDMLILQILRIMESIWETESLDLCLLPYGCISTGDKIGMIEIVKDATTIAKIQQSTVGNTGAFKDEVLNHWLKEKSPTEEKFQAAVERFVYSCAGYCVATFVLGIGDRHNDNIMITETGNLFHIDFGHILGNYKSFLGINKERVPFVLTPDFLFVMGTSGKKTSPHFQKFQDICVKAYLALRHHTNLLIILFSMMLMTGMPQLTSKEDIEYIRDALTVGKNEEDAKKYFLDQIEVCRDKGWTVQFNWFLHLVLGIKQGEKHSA
Binning rule for recorded inhibition: class A (below 10%), class B (10% to below 20%), class C (20% or more)

{"columns": ["cpdSmiles", "label"],
 "data": [
  ["COC(=O)c1ccccc1-c1ccc(/C=C2\\SC(=O)NC2=O)o1", "class A"],
  ["O=C(O)Cc1cccc(-c2ccc(/C=C3\\SC(=O)NC3=O)o2)c1", "class B"]
]}

Q. Please report the category associated with O=C1NC(=O)/C(=C/c2ccc(-c3ccccc3C(=O)O)o2)S1 , nothing else.
A. class A

Q. Band for the recorded inhibition of Nc1ccc([N+](=O)[O-])cc1-c1ccc(/C=C2\SC(=O)NC2=O)o1 ?
A. class B

Q. Form: Item = COc1ccccc1-c1ccc(/C=C2\SC(=O)NC2=O)o1 ; Class = ?
A. class C

Q. Entry O=C1NC(=O)/C(=C/c2ccc(-c3ccc(F)cc3O)s2)S1 belongs to which category?
A. class A

Q. Textbook exercise: identify the category of the molecule given here, O=C1NC(=O)/C(=C/c2ccc(-c3ccccc3O)s2)S1 , according to its measured value.
A. class C

Q. Dear colleague, I would appreciate it if you could identify the bin for O=C1NC(=O)/C(=C/c2ccc(-c3cccc4cccnc34)o2)S1 and reply at your convenience.
A. class B

Q. # bin lookup: classify CC(=O)Nc1ccccc1-c1ccc(/C=C2\SC(=O)NC2=O)o1 by its inhibition
A. class C

Q. Hi, small favor: classify O=C(O)Cc1ccccc1-c1ccc(/C=C2\SC(=O)NC2=O)o1 by its inhibition when you get a moment.
A. class B

Q. Which bin, given its inhibition, does O=C1NC(=O)/C(=C/c2ccc(-c3cccc([N+](=O)[O-])c3)o2)S1 occupy?
A. class C

Q. Sort COc1cc(F)ccc1-c1ccc(/C=C2\SC(=O)NC2=O)o1 into one of the categories.
A. class B

---

testSystem: Phosphatidylinositol 4,5-bisphosphate 3-kinase catalytic subunit beta isoform (Homo sapiens)
Sequence (P42338 whole entry, canonical isoform): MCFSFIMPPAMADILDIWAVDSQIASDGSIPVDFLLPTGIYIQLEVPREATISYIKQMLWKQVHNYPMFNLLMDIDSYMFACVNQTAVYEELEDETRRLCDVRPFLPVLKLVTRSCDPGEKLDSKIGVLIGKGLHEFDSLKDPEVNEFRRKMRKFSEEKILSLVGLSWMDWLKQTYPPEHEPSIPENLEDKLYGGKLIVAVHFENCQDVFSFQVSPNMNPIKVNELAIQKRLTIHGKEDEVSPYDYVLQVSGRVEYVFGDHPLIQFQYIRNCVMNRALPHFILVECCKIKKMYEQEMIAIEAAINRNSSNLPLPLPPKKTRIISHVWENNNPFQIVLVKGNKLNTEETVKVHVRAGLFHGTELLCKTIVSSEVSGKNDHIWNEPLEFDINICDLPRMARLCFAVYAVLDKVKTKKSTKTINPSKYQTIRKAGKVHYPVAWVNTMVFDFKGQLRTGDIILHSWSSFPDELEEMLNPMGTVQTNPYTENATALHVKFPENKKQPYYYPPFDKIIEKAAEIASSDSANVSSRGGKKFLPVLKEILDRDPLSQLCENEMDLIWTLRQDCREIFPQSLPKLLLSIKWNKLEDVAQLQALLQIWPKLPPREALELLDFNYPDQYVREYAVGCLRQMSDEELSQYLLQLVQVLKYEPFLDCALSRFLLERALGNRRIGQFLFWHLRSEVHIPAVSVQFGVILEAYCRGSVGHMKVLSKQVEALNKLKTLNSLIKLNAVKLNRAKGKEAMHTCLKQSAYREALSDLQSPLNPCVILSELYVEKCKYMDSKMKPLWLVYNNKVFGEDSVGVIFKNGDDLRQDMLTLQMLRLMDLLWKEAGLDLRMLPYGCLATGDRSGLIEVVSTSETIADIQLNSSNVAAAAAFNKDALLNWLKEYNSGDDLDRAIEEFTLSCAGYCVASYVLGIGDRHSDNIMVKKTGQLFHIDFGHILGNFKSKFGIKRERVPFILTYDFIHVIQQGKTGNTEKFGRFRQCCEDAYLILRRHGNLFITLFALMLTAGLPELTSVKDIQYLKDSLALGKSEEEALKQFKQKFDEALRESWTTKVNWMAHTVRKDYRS
methodSummary: Inhibition of human PI3Kbeta
readoutName: pIC50
Give bare numbers, as −log10 of the molar value.

{"columns": ["cpdSmiles", "pIC50"],
 "data": [
  ["O=C1NC(=O)/C(=C/c2ccc(-c3ccccc3O)o2)S1", 4.70]
]}

Consider the additional compound presented here.
GET /value?item= O=C1NC(=O)/C(=C/c2ccc(-c3ccc(F)cc3O)o2)S1 &field=pIC50 returns 4.70

---

testSystem: Phosphatidylinositol 4,5-bisphosphate 3-kinase catalytic subunit gamma isoform (Homo sapiens)
methodSummary: Inhibition of human PI3Kgamma
Sequence (P48736 whole entry, canonical isoform): as the sequence (P48736 whole entry, looked up, canonical isoform) above
Give measured pIC50 for each item. Keep answers brief.
Answers are plain numbers, as −log10 of the molar value.

For orientation, consider the following solved cases.
{"columns": ["cpdSmiles", "pIC50"],
 "data": [
  ["O=C1NC(=O)/C(=C/c2ccc(-c3cc(C(=O)O)ccc3O)o2)S1", 6.28],
  ["O=C1NC(=O)/C(=C/c2ccc(-c3ccc(F)cc3F)o2)S1", 5.42],
  ["O=C1NC(=O)/C(=C/c2ccc(-c3cc(Cl)ccc3O)o2)S1", 7.37],
  ["Cc1ccc(O)c(-c2ccc(/C=C3\\SC(=O)NC3=O)o2)c1", 7.41],
  ["O=C1NC(=O)/C(=C/c2ccc(-c3cccc([N+](=O)[O-])c3O)o2)S1", 7.10],
  ["O=C1NC(=O)/C(=C/c2ccc(-c3ccccc3)o2)S1", 4.70],
  ["O=C1NC(=S)S/C1=C\\c1ccc(-c2cccc(C(=O)O)c2)o1", 6.04],
  ["O=C1NC(=O)/C(=C/c2ccc(-c3ccccc3F)o2)S1", 5.92]
]}

For every record below, what is its pIC50?
1. O=C1NC(=O)/C(=C/c2ccc(-c3ccc(O)cc3F)o2)S1
2. O=C1NC(=O)/C(=C/c2ccc(-c3ccc([N+](=O)[O-])o3)o2)S1
3. O=C1NC(=O)/C(=C/c2ccc(-c3ccc(O)cc3O)o2)S1
4. O=C1NC(=S)S/C1=C\c1ccc(-c2cc([N+](=O)[O-])ccc2O)o1
5. O=C1NC(=S)S/C1=C\c1ccc(-c2ccc([N+](=O)[O-])cc2Br)o1
6. O=C1NC(=O)/C(=C/c2ccc(-c3cc(F)cc(F)c3O)s2)S1
7. O=C1NC(=O)/C(=C/c2ccc(-c3ccccc3Cl)o2)S1

A.
1: 6.59; 2: 4.70; 3: 7.70; 4: 6.70; 5: 5.44; 6: 7.54; 7: 4.70

---

methodSummary: Cmax in rat at 10 mg/kg, po
Format: ADME, organism-based
Design: dose 10 mg/kg, route oral
testConditions: in vivo
readoutName: Cmax (ng/mL)
Give bare numbers, in ng/mL.

Recorded result, O=C1NC(=O)/C(=C/c2ccc(-c3ccc(F)cc3O)o2)S1 , Cmax: 309

---

methodSummary: AUC in rat at 10 mg/kg, po
Assay type: ADME, organism-based
Parameters: dose 10 mg/kg, route oral
testConditions: plasma
readoutName: AUC (ng·h/mL)
One number for each entry, in ng·h/mL.

Reported AUC ( O=C1NC(=O)/C(=C/c2ccc(-c3ccc(F)cc3O)o2)S1 ) = 847

---

methodSummary: Dissociation constant, pKa of the compound
Assay type: physicochemical
readoutName: pKa
Answers are plain numbers.

{"columns": ["cpdSmiles", "pKa"],
 "data": [
  ["O=C1NC(=O)/C(=C/c2ccc(-c3cc(OC(F)(F)F)ccc3O)o2)S1", 8.7]
]}

# per-item lookup of pKa; items listed below
1. O=C1NC(=O)/C(=C/c2ccc(-c3cc(Cl)ccc3O)o2)S1
2. O=C1NC(=O)/C(=C/c2ccc(-c3ccc(F)cc3O)o2)S1

A.
8.9
8.4

I need pKa for every entry listed below, if you could help.
1. O=C1NC(=O)/C(=C/c2ccc(-c3ccc(O)cc3O)o2)S1
2. O=C1NC(=O)/C(=C/c2ccc(-c3cc(F)ccc3O)o2)S1
3. Cc1ccc(O)c(-c2ccc(/C=C3\SC(=O)NC3=O)o2)c1
4. COC(=O)c1ccc(-c2ccc(/C=C3\SC(=O)NC3=O)o2)c(O)c1
5. O=C1NC(=O)/C(=C/c2ccc(-c3ccccc3O)o2)S1

A.
[8.7, 9.1, 9.7, 8.7, 9.5]

Go through the list and state pKa for each entry.
1. N#Cc1ccc(O)c(-c2ccc(/C=C3\SC(=O)NC3=O)o2)c1
2. O=C1NC(=O)/C(=C/c2ccc(-c3cc(C(=O)O)ccc3O)o2)S1

A.
1: 7.3; 2: 8.6

---

testSystem: Phosphatidylinositol 4,5-bisphosphate 3-kinase catalytic subunit alpha isoform (Homo sapiens, UniProt P42336)
Sequence (P42336 whole entry, canonical isoform): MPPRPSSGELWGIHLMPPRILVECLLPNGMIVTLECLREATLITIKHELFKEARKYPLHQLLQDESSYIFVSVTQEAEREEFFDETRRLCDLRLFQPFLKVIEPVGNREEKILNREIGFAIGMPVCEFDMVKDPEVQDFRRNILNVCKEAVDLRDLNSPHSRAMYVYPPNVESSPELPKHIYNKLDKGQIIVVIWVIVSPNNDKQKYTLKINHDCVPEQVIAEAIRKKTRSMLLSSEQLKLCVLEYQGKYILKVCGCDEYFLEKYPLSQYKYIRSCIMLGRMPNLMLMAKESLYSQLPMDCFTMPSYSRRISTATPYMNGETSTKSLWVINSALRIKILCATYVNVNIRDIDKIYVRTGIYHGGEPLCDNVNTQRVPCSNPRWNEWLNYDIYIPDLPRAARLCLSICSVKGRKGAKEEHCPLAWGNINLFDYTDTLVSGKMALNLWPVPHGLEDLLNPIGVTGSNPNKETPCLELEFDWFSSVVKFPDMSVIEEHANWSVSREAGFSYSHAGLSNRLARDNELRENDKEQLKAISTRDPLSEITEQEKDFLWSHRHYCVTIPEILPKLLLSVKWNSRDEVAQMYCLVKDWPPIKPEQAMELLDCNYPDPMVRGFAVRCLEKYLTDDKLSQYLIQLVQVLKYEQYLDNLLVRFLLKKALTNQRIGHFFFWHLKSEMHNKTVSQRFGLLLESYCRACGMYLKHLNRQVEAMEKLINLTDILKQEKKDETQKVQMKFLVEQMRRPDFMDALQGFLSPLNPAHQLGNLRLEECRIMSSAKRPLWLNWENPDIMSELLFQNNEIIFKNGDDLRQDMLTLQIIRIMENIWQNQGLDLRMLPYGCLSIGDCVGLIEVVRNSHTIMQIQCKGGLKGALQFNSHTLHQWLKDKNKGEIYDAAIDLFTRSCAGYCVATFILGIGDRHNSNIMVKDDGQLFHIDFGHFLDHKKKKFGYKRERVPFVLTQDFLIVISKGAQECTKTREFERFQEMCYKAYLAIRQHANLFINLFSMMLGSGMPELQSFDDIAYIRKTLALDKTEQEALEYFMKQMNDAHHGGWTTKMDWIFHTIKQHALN
methodSummary: Inhibition of human PI3Kalpha
readoutName: IC50 (nM)
Answers are plain numbers, in nM.

Look over these answered cases.
{"columns": ["cpdSmiles", "reported"],
 "data": [
  ["O=C1NC(=S)S/C1=C\\c1ccc(-c2cc([N+](=O)[O-])ccc2O)o1", 600],
  ["O=C1NC(=O)/C(=C/c2ccc(-c3cc(O)ccc3O)o2)S1", 100],
  ["Cc1ccc(O)c(-c2ccc(/C=C3\\SC(=O)NC3=O)o2)c1", 500],
  ["O=C1NC(=O)/C(=C/c2ccc(-c3cc(F)cc(F)c3O)s2)S1", 340],
  ["O=C1NC(=O)/C(=C/c2ccc(-c3ccc(O)cc3)o2)S1", 3600],
  ["O=C1NC(=O)/C(=C/c2ccc(-c3ccc(F)cc3O)o2)S1", 940],
  ["COC(=O)c1ccc(-c2ccc(/C=C3\\SC(=O)NC3=O)o2)c(O)c1", 210],
  ["N#Cc1ccc(O)c(-c2ccc(/C=C3\\SC(=O)NC3=O)o2)c1", 220]
]}

For each entry beneath this line, provide reported IC50.
1. O=C1NC(=O)/C(=C/c2ccc(-c3ccc(O)cc3O)o2)S1
2. O=C1NC(=O)/C(=C/c2ccc(-c3ccccn3)o2)S1

A.
1: 190; 2: 185

Batch request: IC50 for each of the following compounds.
1. O=C1NC(=O)/C(=C/c2ccc(-c3ccc(O)cc3F)o2)S1
2. O=C1NC(=O)/C(=C/c2ccc(-c3ccccc3O)o2)S1
3. O=C1NC(=O)/C(=C/c2ccc(-c3ccc4c(c3)OCO4)o2)S1
4. O=C1NC(=O)/C(=C/c2ccc(-c3cc(OC(F)(F)F)ccc3O)o2)S1
5. O=C1NC(=O)/C(=C/c2ccc(-c3cccc([N+](=O)[O-])c3O)o2)S1

A.
[1000, 330, 20000, 600, 1250]

List IC50 for every entry below, keeping the order given.
1. O=C1NC(=O)/C(=C/c2ccc(-c3cc(Cl)ccc3O)o2)S1
2. O=C1NC(=O)/C(=C/c2ccc(-c3cc(C(=O)O)ccc3O)o2)S1
3. O=C1NC(=O)/C(=C/c2ccc(-c3cc(F)ccc3O)o2)S1
4. O=C1NC(=O)/C(=C/c2ccc(-c3cccnc3)o2)S1
5. O=C1NC(=O)/C(=C/c2ccc(-c3cccc(O)c3)o2)S1

A.
1. 545
2. 1350
3. 455
4. 630
5. 1800
